Measured Max. Activity (fold over background), listed per entry for reference.
# target_entity: Vg9/Vd2 T cell receptor on SKW3_4 cells (UniProt Q99603)
# Sequence (Q99603 21-122, chain 1 of 2): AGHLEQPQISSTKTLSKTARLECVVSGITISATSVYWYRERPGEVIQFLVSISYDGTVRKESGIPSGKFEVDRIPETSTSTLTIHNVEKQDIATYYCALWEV
# Sequence (A0JD36 20-115, chain 2 of 2, further chain): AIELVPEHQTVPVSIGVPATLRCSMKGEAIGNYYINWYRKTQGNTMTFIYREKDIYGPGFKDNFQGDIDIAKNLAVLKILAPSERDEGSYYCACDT
# experimental_details: flow cytometry, DRC binding at 37°C on SKW3_4 cells expressing Vg9/Vd2
# print the numeric value only

Sample records with Max. Activity (fold over background):
binder: VG9B470 (antibody, human IgG1, kappa, V domains shown) VH: QVTLKESGPTLVKPTQTLTLTCTFSGFSLTTSGVGVGWIRQPPGKALEWLALILWNDHTIYSPSLKSRLTITKDTSKNQVVLTMTNMDPVDTAAYFCARDKWELRDAFDIWGQGTMVTVSS VL: EIVMTQSPSFLSASVGDRVTFTCRASQGISRYLAWYQQKPGRAPNLLIYVASTLQSGVPSRFSGSGSGTEFTLTISSLLPEDFATYYCQQLISYPYTFSQGTRLEIKR
reported_result: 167
//
binder: VG9B465 (antibody, human IgG1, lambda, V domains shown) VH: QVQLQQSGPGLVKPSETLSLTCTVSGGSITSYYWNWIRQPAGKGLEWIGRIYTIGNTNYNPSLKSRVTMSIDTSKHQFSLKLSSVTGADTAVYYCAREGYYESDGSFFPGAFNIWGQGTMVTVSS VL: SSELTQPASVSGSPGQSITISCTGTSNDVGSYNLVSWYQQHPGKAPKLMIYAGSKRPSGISNRFSGSKSGNTASLTISGLQAEDEADYYCCSYAGTTNVVFGGGTKVTVLG
reported_result: 148
//
binder: VG9B383 (antibody, human IgG1, lambda, V domains shown) VH: QVQLQESGPGLVKPSETLSLTCTVSSGSISSYYWNWIRQPAGKGLEWVGRIYTIGNTNYNPSLKSRVTMSIDTSKNQFSLNLSSVTAADTAVYFCAREGYYDSSGSFFPGAFGIWGQGTMVTVSS VL: SSELTQPASVSGSPGQSITISCTGTSNDVGSYNLVSWYQQHPGKAPKLMIYAGSKRPSGISNRFSGSKSGNTASLTISGLQAEDEADYYCCSFAGATNVVFGGGTKLTVLG
reported_result: 184

(Q) Returns the measured Max. Activity (fold over background) for the input binder. Input: VG9B86 (antibody, human IgG1, kappa, V domains shown) VH: QVQLQESGPGLVKPSETLSLTCTVSGDSISSSYWSWIRQPAGKGLECIGRFYSSGSTSYNPSLKSRVTMAIDTSKNQFSLKLTSVTAADTAVYYCARYSGSYWYFDLWGRGTTVTVSS VL: EIVLTQSPATLSLSPGERATLSCRASQSVSSYLAWYQQRPGQAPRLLIYDTSNRATGIPARFSGSGSGTDFTLTISSLAPEDFAVYYCQQRSDWLLTFGGGTKVEIKR
(A) 138
